Form field: EC50 (one value per entry).
- test_target: recombinant human Muscarinic M1 receptor (Homo sapiens (Human))
- Sequence (P11229 whole entry): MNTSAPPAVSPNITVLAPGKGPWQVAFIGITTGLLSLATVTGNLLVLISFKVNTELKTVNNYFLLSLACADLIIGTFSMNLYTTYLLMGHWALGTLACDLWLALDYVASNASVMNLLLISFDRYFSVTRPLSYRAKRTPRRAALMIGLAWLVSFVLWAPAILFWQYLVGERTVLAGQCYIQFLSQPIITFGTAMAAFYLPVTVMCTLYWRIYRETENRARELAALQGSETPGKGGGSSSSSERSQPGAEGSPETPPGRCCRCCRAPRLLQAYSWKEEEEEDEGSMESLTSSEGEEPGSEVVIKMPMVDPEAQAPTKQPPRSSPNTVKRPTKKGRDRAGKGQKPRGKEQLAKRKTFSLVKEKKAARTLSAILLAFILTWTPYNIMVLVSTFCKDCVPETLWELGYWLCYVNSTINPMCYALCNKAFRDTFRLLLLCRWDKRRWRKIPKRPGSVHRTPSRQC
- procedure_text: Allosteric potency EC50, CHO cells with pCRE-Luc reporter, in presence of EC20 of acetylcholine
- particulars: 4 hours
Give the value, in units of nM, as a plain number.

| compound | uom | quantitative_result |
| --- | --- | --- |
| O=C(N[C@H]1CCCC[C@@H]1O)C1=CN(Cc2cccc(F)c2F)c2ccccc2O1 | nM | 331 |
| O=C(N[C@H]1CCCC[C@@H]1O)C1=CN(Cc2ccc(F)cc2)c2ncccc2O1 | nM | 1580 |

The record that follows has no EC50 shown yet.
Tested on recombinant human Muscarinic M1 receptor (Homo sapiens (Human)), the item O=C(N[C@H]1CCCC[C@@H]1O)C1=CN(Cc2ccccn2)c2ccccc2[S+]1[O-] (stereo partly drawn) showed EC50 equal to 2160

* * *

Form field: bioavailability (one value per entry).
- procedure_text: Rodent pharmacokinetic study
- Assay type: in vivo, rat
- particulars: rat, plasma; 3 mg/kg oral vs 1 mg/kg i.v., male Wistar rats

| compound | recorded_metric | result |
| --- | --- | --- |
| O=C(N[C@H]1CCCC[C@@H]1O)C1=CN(Cc2ccc(Cl)nc2)c2ccccc2O1 [Example 21] | bioavailability | 95% |
| O=C(N[C@H]1CCCC[C@@H]1O)C1=CN(Cc2ccc(F)c(F)c2)c2ccccc2O1 [Example 19] | bioavailability | 67% |
| O=C(N[C@H]1CCCC[C@@H]1O)C1=CN(Cc2cccc(F)c2F)c2ccccc2O1 [Example 18] | bioavailability | 74% |
| O=C(N[C@H]1CCCC[C@@H]1O)C1=CN(Cc2cccc(F)c2)c2ccccc2O1 [Example 7] | bioavailability | 39% |

The record that follows has no bioavailability shown yet.
The reported bioavailability of the compound O=C(N[C@H]1CCCC[C@@H]1O)C1=CN(Cc2ccccc2F)c2ccccc2O1 [Example 1] was 40%

* * *

Form field: Exploration time mean ± S.E.M, Familiar object (one value per entry).
- Tested on: Male Wistar rats
- procedure_text: Object recognition task model (time induced memory deficit)
- Type: in vivo, rat
- particulars: 1 mg/kg, p.o.; choice trial 24 hours after T1

Reference set, count: 5
| smiles_structure | result |
| --- | --- |
| O=C(N[C@H]1CCCC[C@@H]1O)C1=CN(Cc2cccc(F)c2F)c2ccccc2O1 | 8.74 ± 1.49 s |
| O=C(N[C@H]1CCCC[C@@H]1O)C1=CN(Cc2ccccc2F)c2ccccc2O1 | 10.93 ± 1.98 s |
| COc1cccc(CN2C=C(C(=O)N[C@H]3CCCC[C@@H]3O)Oc3ccccc32)c1 | 8.64 ± 0.82 s |
| COc1cc(CN2C=C(C(=O)N[C@H]3CCCC[C@@H]3O)Oc3ccccc32)ccn1 | 10.05 ± 1.66 s |
| O=C(N[C@H]1CCCC[C@@H]1O)C1=CN(Cc2ccncc2)c2ccccc2O1 | 13.15 ± 1.55 s |

The record that follows has no Exploration time mean ± S.E.M, Familiar object shown yet.
Tested on Male Wistar rats, the item `O=C(N[C@H]1CCCC[C@@H]1O)C1=CN(Cc2ccc(Cl)nc2)c2ccccc2O1` showed Exploration time mean ± S.E.M, Familiar object equal to 9.18 ± 1.63 s

* * *

- procedure_text: Rodent pharmacokinetic study
- Type: in vivo, rat
- particulars: rat, plasma; 3 mg/kg oral (gavage), male Wistar rats
Form field: half-life (one value per entry).
Give the value, in units of h, as a plain number.

Reference set, count: 7
| smiles_structure | half-life (h) |
| --- | --- |
| O=C(N[C@H]1CCCC[C@@H]1O)C1=CN(Cc2cccc(F)c2)c2ccccc2O1 | 1.8 |
| O=C(N[C@H]1CCCC[C@@H]1O)C1=CN(Cc2cccc(F)c2)c2cccc(F)c2O1 | 2.3 |
| O=C(N[C@H]1CCCC[C@@H]1O)C1=CN(Cc2cccc(F)c2F)c2ccccc2O1 | 3.9 |
| O=C(N[C@H]1CCCC[C@@H]1O)C1=CN(Cc2ccccc2)c2ccccc2O1 | 1.5 |
| O=C(N[C@H]1CCCC[C@@H]1O)C1=CN(Cc2ccccc2F)c2ccccc2O1 | 2.3 |
| COc1cccc(CN2C=C(C(=O)N[C@H]3CCCC[C@@H]3O)Oc3ccccc32)c1 | 2.9 |
| O=C(N[C@H]1CCCC[C@@H]1O)C1=CN(Cc2ccc(Cl)nc2)c2ccccc2O1 | 2.7 |

The record that follows has no half-life shown yet.
The reported half-life of the molecule `O=C(N[C@H]1CCCC[C@@H]1O)C1=CN(Cc2ccncc2)c2ccccc2O1` was 1.2
